Test system: CEM cells HIV-1 protection, formazan growth assay
Test: NCI AIDS Antiviral Assay
Conditions: measured here: growth of uninfected CEM cells
The reader will find reported IC50 values listed item by item below.
Your answer should be a plain number; it is taken to be in µM.

Solved cases below.
{"molecule": "O=C(/C=C/c1ccco1)N1CCN(Cc2ccccc2)CC1", "unit": "µM", "IC50": 263}
{"molecule": "N#C/C1=C(\\N)CCSSSC1", "unit": "µM", "IC50": 22.9}

Exam item: Recall the reported IC50 of Cc1ccc(C(=O)O)c(CC2Cc3c(C)cccc3C2=O)c1 (stereo not given) on CEM cells HIV-1 protection, formazan growth assay and write it down.
Marked response: 155

Exam item: Recall the reported IC50 of CCCCCCCCCCCC(=O)OCC(O)CO (stereo not given) on CEM cells HIV-1 protection, formazan growth assay and write it down.
Marked response: 51.3

###

Tested on: CEM cells HIV-1 protection, formazan growth assay
Assay: NCI AIDS Antiviral Assay;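 active means compounds giving half or more protection of infected cells from virus-caused growth loss, again on retest; inactive means the rest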
Method: The ability of compounds to protect human CEM cells from HIV-1 infection is measured as a screen for new compounds capable of inhibiting the HIV virus. Five concentrations of drug were tested on uninfected and infected cells and cell growth was measured using a soluble formazan assay. […] Compounds that provided at least 50% protection were retested. Compounds that provided at least 50% protection on retest were listed as moderately active. […]
Valid outcomes are listed here; reply with one: TRUE for active, FALSE for inactive

Exam item: Recorded test call requested for "O=C(OCCN1CCNCC1)c1cc2ccccc2[nH]1"
Marked response: FALSE

Exam item: Recorded test call requested for "O=S(=O)(O)SCCCNCCCCCCCCNCCCSS(=O)(=O)O"
Marked response: FALSE

Exam item: Recorded test call requested for O=c1c(O)c(-c2cc(O)c(O)cc2O)oc2cc(O)c(C3OC(CO)C(O)C(O)C3O)c(O)c12 (stereo unspecified)
Marked response: FALSE

Exam item: Recorded test call requested for "O=C(/C=C/c1ccccc1)Nc1ccccc1SCCCCl"
Marked response: FALSE

Exam item: Recorded test call requested for "Clc1ccc2c(c1)Oc1ccccc1C=N2"
Marked response: FALSE

Exam item: Recorded test call requested for O=C(O)CC(NC(=O)OCc1ccccc1)C(=O)O (stereo unspecified)
Marked response: FALSE

Exam item: Recorded test call requested for "N#C/C(=C\c1cc(Cl)cc(Cl)c1O)c1ccc([N+](=O)[O-])cc1"
Marked response: FALSE

Exam item: Recorded test call requested for COc1nc2nc(C(O)C(O)CO)cnc2c(=O)n1C (stereo unspecified)
Marked response: FALSE

Exam item: Recorded test call requested for "O=c1c(F)cn2c(=O)n1CCCCCCCn1c(=O)c(F)cn(c1=O)CCCCCCC2"
Marked response: FALSE

Exam item: Recorded test call requested for COC(=O)C1CC(F)(F)[C@H]1n1cnc2c(N)ncnc21 (stereo partly specified)
Marked response: FALSE

###

Tested on: CEM cells HIV-1 protection, formazan growth assay
Experiment: NCI AIDS Antiviral Assay;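 active = compounds giving half or more protection of infected cells from virus-caused growth loss, again on retest; inactive = the rest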
Valid outcomes are listed here; reply with one: true (1) (active), false (0) (inactive)

{"compound": "O=P1(NCCCl)OCCCN1CCCl (stereo not given)", "label": "false (0)"}

For the next question, use this compound.
Exam item: Recorded test call requested for O=C(/C=C/c1ccc(Cl)cc1)NC1C=Nc2ccc([N+](=O)[O-])cc2NC1=O (stereo not given)
Marked response: false (0)

###

Test system: CEM cells HIV-1 protection, formazan growth assay
Assay: NCI AIDS Antiviral Assay
Details: measured here: growth of uninfected CEM cells
endpoint: IC50

Solved cases below.
{"compound": "CC1(C)C=Cc2c(ccc3c(=O)c(-c4ccccc4)coc23)O1", "value_measured": "> 100 µM"}
{"compound": "O=C1CN(N2C(=O)CSC2C23CC4CC(CC(C4)C2)C3)C(=O)CN1c1ccccc1 (stereo unspecified)", "value_measured": "> 151 µM"}
{"compound": "O=c1c(O)cccc2cc(O)c(O)c(O)c12", "value_measured": "23.4 µM"}

Exam item: Give reported IC50 value for "CN(Cc1ccccc1)c1cc(=O)n(C)c(=O)[nH]1"
Marked response: > 200 µM

Exam item: Give reported IC50 value for "c1ccc2c3csccc-3nc2c1"
Marked response: 97.7 µM

Exam item: Give reported IC50 value for "COCO[C@@H]1C(=O)N(c2ccccc2)[C@@H]1c1ccccc1"
Marked response: > 178 µM

Exam item: Give reported IC50 value for "COc1ccc(Cn2nc(OCc3ccccn3)c3cc([N+](=O)[O-])ccc32)cc1"
Marked response: > 200 µM

Exam item: Give reported IC50 value for "N#Cc1c(NCCc2ccc(F)cc2)c2ccccc2n2c1nc1ccccc12"
Marked response: > 200 µM

Exam item: Give reported IC50 value for Cc1ccc(S(=O)(=O)C(C#N)c2nc3ccccc3nc2-n2cccn2)cc1 (stereo unspecified)
Marked response: 126 µM

Exam item: Give reported IC50 value for "CCOC(=O)N1CCNCCN(C(=O)OCC)CCNCC1"
Marked response: > 200 µM

Exam item: Give reported IC50 value for COC(=O)c1c(CC(Cc2ccc3c(c2)CCCC3)C(=O)O)ccc2c1CCCC2 (stereo unspecified)
Marked response: 58.9 µM

###

System: CEM cells HIV-1 protection, formazan growth assay
Experiment: NCI AIDS Antiviral Assay
Conditions: measured here: growth of uninfected CEM cells
The reader will find reported pIC50 values listed item by item below.
# pIC50 is unitless: minus log10 of the molar concentration; print number only

Solved cases below.
{"compound": "C=C(C(=O)OC)c1cc2ccccc2n1S(=O)(=O)c1ccccc1", "pIC50": 5.52}
{"compound": "O=C(CNc1nncs1)NO", "pIC50": 3.79}
{"compound": "NC(N)=NN=C(c1ccccc1)c1ccccc1", "pIC50": 5.99}
{"compound": "CN(C)CCN1C(=O)CN=C(c2ccccc2Cl)c2cc(Cl)ccc21", "pIC50": 3.93}
{"compound": "COc1cc(/C=C/C=C2\\CC(C)C/C(=C\\C=C\\c3ccc(O)c(OC)c3)C2=O)ccc1O (configuration not stated)", "pIC50": 5.85}

Exam item: Give reported pIC50 value for "O=C(N=C1[Se]C(=Nc2ccccc2)C(=Nc2ccccc2)N1c1ccc(Cl)cc1)c1ccccc1"
Marked response: 4.05

Exam item: Give reported pIC50 value for "Cc1ccc(-c2c(C#N)c(-c3ccc([N+](=O)[O-])cc3)c(C#N)c(=O)n2NS(=O)(=O)c2ccc(C)cc2)cc1"
Marked response: 4.92

Exam item: Give reported pIC50 value for "COc1cccc(/C=C/c2nccc3ccccc23)c1OC"
Marked response: 4.89

Exam item: Give reported pIC50 value for "O=CC[C@@H]1c2ccccc2C=C[C@]12C=CC(=O)CC2"
Marked response: 4.27

Exam item: Give reported pIC50 value for Cc1cnc2c(c1)C(=O)C1=C(OC(C)(C)CC1O)C2=O (configuration not stated)
Marked response: 5.47

Exam item: Give reported pIC50 value for CCCCCCCCOCC(COC(=O)CCCCCCC)OC(=O)CCCCCCC (configuration not stated)
Marked response: 4.43

Exam item: Give reported pIC50 value for "CCOC(=O)Nc1nc2ccccc2[nH]1"
Marked response: 4.95

Exam item: Give reported pIC50 value for COc1ccc2c(c1)C1Oc3ccccc3CC1(O)CO2 (configuration not stated)
Marked response: 3.88

Exam item: Give reported pIC50 value for "CC(=O)CC(C)=O.CC(=O)CC(C)=O.CC(=O)CC(C)=O.[Mn]"
Marked response: 4.59

Exam item: Give reported pIC50 value for "O=C(O)c1c[nH]c2c([N+](=O)[O-])cccc2c1=O"
Marked response: 5.04

Exam item: Give reported pIC50 value for "Cc1ccc(Cc2nn(C)c(=O)n2-n2cccc2)cc1"
Marked response: 3.99

Exam item: Give reported pIC50 value for "Clc1ccc(CSc2ccc3nncc(SCc4ccc(Cl)c(Cl)c4)c3c2)cc1Cl"
Marked response: 4.43

Exam item: Give reported pIC50 value for "COC(=O)c1c(C#N)[nH]c(-c2ccsc2)c1C(=O)OC"
Marked response: 4.28

###

The reader will find reported IC50 values listed item by item below.
Tested on: CEM cells HIV-1 protection, formazan growth assay
Assay: NCI AIDS Antiviral Assay
Settings: measured here: growth of uninfected CEM cells
Your answer should be a plain number; it is taken to be in µM.

{"compound": "COC(=O)C1=C(C)N2[C@H](C(=O)O)CS[C@@]2(C)[C@H](C(=O)OC)[C@H]1c1cccc([N+](=O)[O-])c1", "IC50 / µM": 148}
{"compound": "COC(=O)C1=C(C)NC2(C)SC1C(C)C2C(=O)OC (stereo unspecified)", "IC50 / µM": 490}
{"compound": "CCOC(=O)C(=CNC(=S)N=Nc1c(O)[nH]c2ccccc12)C(=O)OCC", "IC50 / µM": 70.8}

Exam item: Give reported IC50 value for "O=[N+]([O-])c1ccc(N/N=C/c2ccc(OCCCCCCCCCCCO)cc2)c([N+](=O)[O-])c1"
Marked response: 42.7

Exam item: Give reported IC50 value for CCOC(=O)c1c(-c2cccc3ccccc23)c(C#N)c(=S)n(C2OC(COC(C)=O)C(OC(C)=O)C(OC(C)=O)C2OC(C)=O)c1C (stereo unspecified)
Marked response: 7.76

Exam item: Give reported IC50 value for "O=[As]1(c2ccccc2)c2ccccc2Oc2ccccc21"
Marked response: 141

Exam item: Give reported IC50 value for "N#Cc1c(N2CCN(c3ccc([N+](=O)[O-])cc3)CC2)[n+](=O)c2ccc(Cl)cc2n1[O-]"
Marked response: 0.631

Exam item: Give reported IC50 value for "COC(=O)/C(=C/c1ccc(OC)cc1)C(C(=O)O)=C(C)C"
Marked response: 11.2
